- tgt: T1, SARS-CoV-2 RBD-mFc (SARS-CoV-2, UniProt P0DTC2 319-541)
- T1 construct: range 319-541
- experiment-notes: flow cytometry competition: RBD-mFc on HEK293E/ACE2 cells
Can you tell me pIC50 for the items I'm about to list?
Answers are plain numbers, as −log10 of the molar value.

SA3755 (antibody, V domains shown) VH: QMQLVESGGGVVQPGGSLRLSCAASGFTFDDHTMHWVRQAPGKGLEWVSLISWDGGSTYYADSVKGRFTISRDNSKNSLYLQMNSLRAEDTAVYYCTRDASRRPGDGGYDFDVWGQGTQVTVSS VL: QAVVTQEPSLTVSPGGTVTLTCGSSTGTVTRGHWPYWFQQKPGQAPRTLIYDTDNKHSWTPARFSGSLLGGKAALTLSGAQPEDEADYYCLLSYSDSRVFGTGTKVTVL : 8.42

Record pIC50 per entry; entries follow.
1. SA4055 (antibody, V domains shown) VH: EVQLVQSGGGLVQPGGSLRLSCAASVITVSSNYMSWVRQAPGKGLEWVSVIYPGGSTYYADSVKGRFTISRDKSKNTLYLQMNSLRAEDTAVYYCARDLDIVGGMDVWGQGTTVTVSS VL: QSALTQPASVSGSPGQSITISCTGTSSDVGDYNLVSWYQQHPGKAPKVMIYDVSHRPSGVSNRFSGSKSGNTASLTISGLQAEDEADYYCSSYTSSTTVVFGGGTKLTVL
2. SA4056 (antibody, V domains shown) VH: QVQLQESGGGLVQPGGSLRLSCAASVITVSSNYMSWVRQAPGKGLEWVSVIYPGGSTYYADSVKGRFTISRDKSKNTLYLQMNSLRAEDTAVYYCARDLDIVGGMDVWGQGTTVTVSS VL: DIQMTQSPSTLSASVGDRVTITCRASQSISRWLAWYQQKPGQAPKLLIYAASTLQSGVPSRFSGSGSGTEFTLTISSLQPDDFATYYCQQYDSYPRTFGQGTKVDIK
3. SA3827 (antibody, V domains shown) VH: QVQLVESGGTLVQPGRSLRLSCAASGFTFSSYAMHWVRQAPGKGLEWVAVISYDGSNKYYADSVKGRFTISRDNSKNTLYLQMNSLRAEDTAVYYCARRGHYYDSSGFLYWGQGTLVTVSS VL: DIQMTQSPSSLSASVGDRVTITCRASQSISTYLSWYQQKPGKAPKLLIYAASNLQSGVPSRFSASGSGTDFTLTISSLQPEDFATYYCQQSYNTPRTFGQGTKVEIK
4. SA3838 (antibody, V domains shown) VH: QVQLVESGAEVKKPGASVRVSCKISGYIFTELSIHWVRQAPGKGLEWMGGFDPEEGKTIYAQKFQGRVTMTEDTSTDTAYMELSSLRSEDTAVYYCAKIGHLGDFWYWGQGTLITVSS VL: QSALTQPASVSGSPGQSITISCTGTTSDIGSYDYVSWYQQHPGKAPKLIIYGVTRRPSGVSNRFSGSKSGNTASLTISRLLTEDEAEYYCATYTSSATYVFGTGTKVTVL

[out]
8.54
8.66
8.56
8.47

Attribution: patent KR20220054080A
